Entries annotated with measured TC50 cytotoxicity
- Tested on: DLD1 NRF2-GOF
- procedure_summary: TC50 cytotoxicity; higher = less toxic
- measurement_setup: 72 h; CellTox Green cytotoxicity

CCc1cncnc1N1CCN(Cc2nc3cc(C(F)(F)F)ccc3[nH]2)CC1 : > 10 µM

For record O=C(NOC[C@H](O)CO)c1ccc(F)c(F)c1Nc1ccc(I)cc1F the listed TC50 cytotoxicity is > 1 µM

For record Cc1[nH]c2ccccc2c1CCNCc1ccc(/C=C/C(=O)NO)cc1 the listed TC50 cytotoxicity is > 1 µM

----------
- System: DLD1 NRF2-WT
- measurement_setup: 72 h; CellTiter-Glo viability
recorded_endpoint: EC50 viability (nM)
Give a bare numeral; the unit nM is implied.

Answered cases to consult:
CN1CCC(CNc2ccc3ncc(-c4cccc(OC(F)(F)F)c4)n3n2)CC1 : 3470
CCOC(=O)CCNc1cc(N2CCc3ccccc3CC2)nc(-c2ccccn2)n1 : 2950
Cc1cc(Nc2cc(CN3CCOCC3)c3nc(C)c(Cc4ccc(Cl)cc4F)n3n2)n[nH]1 : 2280

Moving on to the next compound.
For record O=C(c1ccc(F)c(F)c1Nc1ccc(I)cc1F)N1CC(O)([C@@H]2CCCCN2)C1 the listed EC50 viability is 207

----------
- System: DLD1 NRF2-WT
- procedure_summary: drug sensitivity score (DSS) viability (DSS score); higher = more sensitive; extreme values may be limits of the assay
- measurement_setup: 72 h; CellTiter-Glo viability
recorded_endpoint: drug sensitivity score
Please reply with the number alone, leaving off any unit.

Answered cases to consult:
CN1CCN(CCOc2cc(OC3CCOCC3)c3c(Nc4c(Cl)ccc5c4OCO5)ncnc3c2)CC1 [Saracatinib] : 2.4
CN(Cc1cnc2nc(N)nc(N)c2n1)c1ccc(C(=O)N[C@@H](CCC(=O)O)C(=O)O)cc1 [Methotrexate] : 23.4
CCN(CC)CCN(Cc1ccc(-c2ccc(C(F)(F)F)cc2)cc1)C(=O)Cn1c(SCc2ccc(F)cc2)nc(=O)c2c1CCC2 [Darapladib] : 0

Moving on to the next compound.
For record CN(C)C1CCN(C(=O)c2ccc(NC(=O)Nc3ccc(-c4nc(N5CCOCC5)nc(N5CCOCC5)n4)cc3)cc2)CC1 [Gedatolisib] the listed drug sensitivity score is 13.5

----------
- Test system: DLD1 NRF2-WT
- measurement_setup: 72 h; CellTiter-Glo viability
Entries annotated with measured EC50 viability
Give a bare numeral; the unit µM is implied.

CCN1CCN(Cc2ccc(Nc3ncc(F)c(-c4cc(F)c5nc(C)n(C(C)C)c5c4)n3)nc2)CC1 : 0.0266

Moving on to the next compound.
For record CC(C)(C)c1cnc(CSc2cnc(NC(=O)C3CCNCC3)s2)o1 the listed EC50 viability is 0.0984

----------
- Test system: DLD1 NRF2-GOF
- procedure_summary: TC50 cytotoxicity; higher = less toxic
- measurement_setup: 72 h; CellTox Green cytotoxicity
Entries annotated with measured TC50 cytotoxicity

Answered cases to consult:
CN(C)C/C=C/C(=O)Nc1cc2c(Nc3ccc(F)c(Cl)c3)ncnc2cc1O[C@H]1CCOC1 : > 1 µM
C=CCN(/C=C1/C(=O)O[C@H](COC)[C@@]2(C)C1=C(O)C(=O)C1=C2[C@H](OC(C)=O)C[C@]2(C)C(=O)CC[C@@H]12)CC=C : > 10 µM
CC[C@H](CO)Nc1nc(NCc2ccccc2)c2ncn(C(C)C)c2n1 : > 10 µM
COc1cc2c(Oc3ccc4[nH]c(C)cc4c3F)ncnc2cc1OCCCN1CCCC1 : > 1 µM
CCN1CCN(c2ccc(Nc3cc(N(C)C(=O)Nc4c(Cl)c(OC)cc(OC)c4Cl)ncn3)cc2)CC1 : > 1 µM

For record C[C@@H](Oc1ccc2[nH]nc(/C=C/c3cnn(CCO)c3)c2c1)c1c(Cl)cncc1Cl the listed TC50 cytotoxicity is > 1 µM

For record CCCOc1ccn2c(C(C)=O)cc(-c3ccccc3S(C)(=O)=O)c2c1 the listed TC50 cytotoxicity is > 10 µM

For record CN(c1ncccc1CNc1nc(Nc2ccc3c(c2)CC(=O)N3)ncc1C(F)(F)F)S(C)(=O)=O the listed TC50 cytotoxicity is > 10 µM

For record COc1cc2ncnc(Nc3ccc(F)c(Cl)c3)c2cc1OCCCN1CCOCC1 the listed TC50 cytotoxicity is > 10 µM

For record COc1cc(N2CCN(C)CC2)ccc1Nc1nccc(-c2cn(C)c3cnccc23)n1 the listed TC50 cytotoxicity is > 10 µM

For record Cc1cccc(-c2nn3c(c2-c2ccnc4ccc(C(N)=O)cc24)CCC3)n1 the listed TC50 cytotoxicity is > 1 µM
